Items are presented alongside their recorded IC50.
SYSTEM_TESTED: human NAAA (Homo sapiens, UniProt Q02083)
Construct: expressed in transfected cells; host or cells: HEK-293 (stably transfected, G418 selection); enzyme-enriched lysate
Sequence (Q02083 126-359 limits assumed): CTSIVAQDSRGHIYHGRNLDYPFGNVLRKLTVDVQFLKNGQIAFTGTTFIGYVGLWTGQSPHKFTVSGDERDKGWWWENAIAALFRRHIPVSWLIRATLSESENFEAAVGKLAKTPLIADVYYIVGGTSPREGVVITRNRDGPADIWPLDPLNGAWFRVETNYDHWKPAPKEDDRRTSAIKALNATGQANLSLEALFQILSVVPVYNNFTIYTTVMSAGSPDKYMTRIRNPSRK
Sequence (Q02083 29-125 limits assumed): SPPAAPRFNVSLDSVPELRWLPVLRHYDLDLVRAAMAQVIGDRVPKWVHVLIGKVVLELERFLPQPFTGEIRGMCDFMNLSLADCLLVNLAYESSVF
MEASUREMENT_NOTES: In vitro human NAAA fluorogenic assay
Type: biochemical
DETAILS: enzyme-enriched lysate of HEK-293 cells stably transfected with human NAAA; read-out: Activity h-NAAA Fluorogenic assay
OBSERVATION_TYPE: IC50

| COMPOUND | OBSERVATION_TYPE | VAL |
| --- | --- | --- |
| Cc1n[nH]c(C)c1S(=O)(=O)N1C2CCC1CC(Oc1ccc(CCC(C)C)cc1)C2 (stereo not shown) | IC50 | < 1 µM |
| Cc1ccc(OC2CC3CCC(C2)N3S(=O)(=O)c2c(C)n[nH]c2C)nn1 (stereo not shown) | IC50 | > 2 µM |
| Cc1n[nH]c(C)c1S(=O)(=O)N1C2CCC1CC(Oc1ccc(CO)cc1)C2 (stereo not shown) | IC50 | < 1 µM |
| Cc1n[nH]c(C)c1S(=O)(=O)N1C2CCC1CC(Oc1ccc(Cl)cc1)C2 (stereo not shown) | IC50 | < 1 µM |
| Cc1ccccc1OC1CC2CCC(C1)N2S(=O)(=O)c1c(C)n[nH]c1C (stereo not shown) [Example 11] | IC50 | > 2 µM |
| Cc1n[nH]c(C)c1S(=O)(=O)N1C2CCC1CC(Oc1cnc3ccccc3n1)C2 (stereo not shown) | IC50 | > 2 µM |
| Cc1n[nH]c(C)c1S(=O)(=O)N1C2CCC1CC(Oc1ccc(F)cc1)C2 (stereo not shown) | IC50 | < 1 µM |
| Cc1n[nH]c(C)c1S(=O)(=O)N1C2CCC1CC(Oc1ccccc1)C2 (stereo not shown) [Example 02] | IC50 | < 1 µM |
| Cc1ccc2oc(OC3CC4CCC(C3)N4S(=O)(=O)c3c(C)n[nH]c3C)nc2c1 (stereo not shown) | IC50 | < 1 µM |
| Cc1n[nH]c(C)c1S(=O)(=O)N1C2CCC1CC(Oc1ccccn1)C2 (stereo not shown) | IC50 | < 1 µM |
| Cc1n[nH]c(C)c1S(=O)(=O)N1C2COCC1CC(Oc1cnccn1)C2 (stereo not shown) [Example 47] | IC50 | > 2 µM |
| Cc1n[nH]c(C)c1S(=O)(=O)N1C[C@H]2COC[C@@H](C1)[C@H]2Oc1cnccn1 | IC50 | > 2 µM |
| Cc1n[nH]c(C)c1S(=O)(=O)N1C2CCC1CC(Oc1cccnn1)C2 (stereo not shown) | IC50 | > 2 µM |
| Cc1cccc(OC2CC3CCC(C2)N3S(=O)(=O)c2c(C)n[nH]c2C)c1 (stereo not shown) [Example 05] | IC50 | > 2 µM |
| Cc1cnc(OC2CC3CCC(C2)N3S(=O)(=O)c2c(C)n[nH]c2C)cn1 (stereo not shown) | IC50 | < 1 µM |
| Cc1n[nH]c(C)c1S(=O)(=O)N1C2CCC1CC(Oc1cnccn1)C2 (stereo not shown) | IC50 | < 1 µM |
| CCCCc1ccc(OC2CC3CCC(C2)N3S(=O)(=O)c2cc(C)sc2C)cc1 (stereo not shown) | IC50 | > 2 µM |
| Cc1n[nH]c(C)c1S(=O)(=O)N1C[C@H]2COC[C@@H](C1)C2Oc1cnccn1 (stereo partly shown) | IC50 | > 2 µM |
| Cc1n[nH]c(C)c1S(=O)(=O)N1C[C@H]2CCC[C@@H](C1)[C@H]2Oc1cnccn1 | IC50 | > 2 µM |
| Cc1n[nH]c(C)c1S(=O)(=O)N1C2COCC1CC(Oc1cnccn1)C2 (stereo not shown) [Example 46] | IC50 | > 2 µM |
| Cc1n[nH]c(C)c1S(=O)(=O)N1C[C@H]2CC[C@@H](C1)C2Oc1cnccn1 (stereo partly shown) | IC50 | > 2 µM |
| Cc1n[nH]c(C)c1S(=O)(=O)N1C2CCC1CC(Oc1ccccc1)C2 (stereo not shown) [Example 01] | IC50 | < 1 µM |
| Cc1ccc(OC2CC3CCC(C2)N3S(=O)(=O)c2c(C)n[nH]c2C)nc1 (stereo not shown) | IC50 | < 1 µM |
| Cc1n[nH]c(C)c1S(=O)(=O)N1C2CCC1CC(Oc1ccc(C#N)cc1)C2 (stereo not shown) [Example 08] | IC50 | < 1 µM |
| Cc1n[nH]c(C)c1S(=O)(=O)N1C2CCCC1CC(Oc1cnccn1)C2 (stereo not shown) [Example 45] | IC50 | > 2 µM |
| COc1ccc(O[C@H]2C[C@H]3CC[C@@H](C2)N3S(=O)(=O)c2c(C)n[nH]c2C)cc1 | IC50 | < 1 µM |
| Cc1n[nH]c(C)c1S(=O)(=O)N1C2CCC1CC(Oc1ccc(C=O)cc1)C2 (stereo not shown) | IC50 | < 1 µM |
| Cc1ccc(OC2CC3CCC(C2)N3S(=O)(=O)c2c(C)n[nH]c2C)cc1 (stereo not shown) [Example 10] | IC50 | > 2 µM |
| Cc1n[nH]c(C)c1S(=O)(=O)N1C2CCC1CC(Oc1ccc(C#N)cc1)C2 (stereo not shown) [Example 09] | IC50 | > 2 µM |
| CCCCc1ccc(OC2CC3CCC(C2)N3S(=O)(=O)c2c(C)noc2C)cc1 (stereo not shown) | IC50 | > 2 µM |
| Cc1ccc(OC2CC3CCC(C2)N3S(=O)(=O)c2c(C)n[nH]c2C)cc1 (stereo not shown) [Example 07] | IC50 | < 1 µM |
| Cc1n[nH]c(C)c1S(=O)(=O)N1C2CCC1CC(Oc1nc3c(C)cccc3o1)C2 (stereo not shown) | IC50 | > 2 µM |
| Cc1n[nH]c(C)c1S(=O)(=O)N1C2CCC1CC(Oc1ccc3ccccc3n1)C2 (stereo not shown) | IC50 | > 2 µM |
| CCCCc1cnc(OC2CC3CCC(C2)N3S(=O)(=O)c2c(C)n[nH]c2C)cn1 (stereo not shown) | IC50 | < 1 µM |
